- System: 786-0
- protocol notes: NCI tumour cell line growth inhibition, 48 h
Activity calls are given as the source filed them. Rule as the data show it: active = GI50 up to about 1.1 µM and inactive = higher.
Outcomes: YES = active, NO = inactive

compound	tested system	label
N#[N+]c1ccccc1Sc1ccc(Cl)cc1	786-0	NO
C=C1C(=O)OC2C3C(=C)[C@@H](OC(C)=O)CC3C(C)=CC(OC(=O)C(C)(O)C(C)OC(C)=O)[C@@H]12 (stereo partly specified)	786-0	NO
CC(=O)OCC1OC(OCCCOP(=O)(OCCC#N)OCC2OC(n3cnc4c(N)ncnc43)C(OC(=O)c3ccccc3)C2OC(=O)c2ccccc2)C(OC(C)=O)C(OC(C)=O)C1OC(C)=O (stereo unspecified)	786-0	NO
Cc1cc(C)c2c(c1)CC1(Cc3cc(C)c(C)cc3C1=O)C2=O (stereo unspecified)	786-0	NO
Oc1cc(/C=C/c2ccccc2)nc2cc3c(cc12)OCO3	786-0	NO
C/C(=N\NC(N)=S)c1sc(-n2nc(-c3ccccc3)cc2-c2ccccc2)nc1C	786-0	NO
CC(=O)NC1=C(NCC(C)C)C(=O)c2ccccc2C1=O	786-0	NO
CC(=O)c1cc2c(s1)C(=O)c1ccccc1C2=O	786-0	NO
CCOC(OC1=CCCC1)C(C)[Se]c1ccccc1 (stereo unspecified)	786-0	NO
COc1ccc(-c2cc(-c3ccccc3)nc(/N=C\c3ccccc3)n2)c(O)c1	786-0	NO
CN1N=C2c3ccccc3CC[C@H]2C1c1cccc(O)c1 (stereo partly specified)	786-0	NO
NCCCNC(=O)c1csc(NC(=O)c2csc(NC(=O)CCCN)n2)n1	786-0	NO
C=C1C(=O)OC2/C=C(\C)CC/C=C(\C)CC(OC(=O)/C(=C/CO)CO)[C@@H]12 (stereo partly specified)	786-0	NO
CC[C@]12C=CCN3CCC4(c5cc([C@@]6(C(=O)OC)CC7CN(CCc8c6[nH]c6ccccc86)C[C@@H]6CCC[C@H]76)c(OC)cc5N(C)C4[C@](O)(C(=O)OC)C1OC(C)=O)C32 (stereo partly specified)	786-0	YES
COc1ccc(/C=N/N2C(=O)c3c(N)c(C#N)c(-c4ccccc4)c(-c4ccccc4)c3C2=O)cc1	786-0	NO
COC(=O)C1Cc2c(n(Cc3ccccc3)c3ccccc23)C(CCC(=O)O)N1C(C)C (stereo unspecified)	786-0	NO
O=C1C=C(c2ccccc2)O/C1=C\C(=O)c1ccc(Cl)cc1	786-0	NO
CCOc1cccc2c1N[S@@](=O)S2	786-0	NO
C=C(C)[C@@H](O)[C@H](O)C[C@H](C)C1CC[C@]2(C)C1=CC[C@@H]1[C@@]3(C)CC[C@@H](OC(C)=O)C(C)(C)[C@@H]3C[C@@H](OC3OC(COC(C)=O)C(O)C(O)C3O)[C@]12C (stereo partly specified)	786-0	NO
O=C(O)CCCNS(=O)(=O)c1ccccc1	786-0	NO
CCN1CC2(C)CCC(OC)C34C5CC6CCC(O)(C5C(=O)O6)C(C(O)C23)C14 (stereo unspecified)	786-0	NO

* * *

- Tested on: MOLT-4
- protocol notes: NCI tumour cell line growth inhibition, 48 h
The source made the active and inactive calls. Rule as the data show it: active = GI50 up to about 1.1 µM and inactive = higher. Square brackets hold non-standard residues; d marks the D form. Peptide text beside a SMILES is read from it. * marks the point of attachment. ξ: configuration not given here. ξW = NC(Cc1c[nH]c2ccccc12)C(=O)O; X29 = O=C(O)[C@H]1CCC[C@H]1N*; ξF = NC(Cc1ccccc1)C(=O)O; Boc = CC(C)(C)OC(=O)*; ξK = NCCCCC(N)C(=O)O; ξT = CC(O)C(N)C(=O)O; tBu = CC(C)(C)*
Outcomes: active, inactive

molecule	label
CC(C)(C)NC(NC(C)(C)C)=C(/C=C(/Cl)[N+](=O)[O-])[N+](=O)[O-]	inactive
NC(=O)N/N=C(\CC1OC(=O)c2ccccc21)c1ccc([N+](=O)[O-])cc1 (centres undefined)	inactive
Nc1ncc(Cl)c(NCC2(CO)CC(CCc3ccccc3)C2)n1 (centres undefined)	inactive
CCOC(=O)N1[C@@H]2CCC[C@@H]2C(=O)[C@@H]2CCC[C@@H]21	inactive
COc1cccc(-c2cc(O)c3cc(N)ccc3n2)c1	inactive
Cc1ccc([N+](=O)[O-])cc1S(=O)(=O)Nc1ccc(C2=NNC(c3ccccc3O)C2)cc1 (centres undefined)	inactive
O=C1c2cc(Cc3ccccc3)c(=O)c(Cc3ccccc3)cc2C(=O)c2cc(Cc3ccccc3)c(=O)c(Cc3ccccc3)cc21	inactive
O=c1c(C(c2ccccc2)c2c(O)oc3cc(O)ccc3c2=O)c(O)oc2cc(O)ccc12	inactive
CC(=O)C(C(c1ccccc1)N1CCOCC1)N1CCOCC1 (centres undefined)	inactive
Oc1cc(-c2ccc3ccccc3c2)nc2ncccc12	inactive
N#CC(C(=O)CCC(=O)Nc1cccc(C(F)(F)F)c1)c1ccccc1 (centres undefined)	inactive
CCCCCCCCCCCCC1NC(=N)NC2(CCCO2)C1C(=O)OC (centres undefined)	inactive
CCc1nc(N)nc(N)c1-c1ccc(NC)c([N+](=O)[O-])c1	active
O=C(Cc1ccccc1)N/N=C1\C(=O)Nc2ccccc21	inactive
CCOC(=O)C[C@@H](C)[C@]1(C(=O)OC)CCCC1=O	inactive
CC(OC(C)(C)C)C(NC(=O)C(CCCCNC(=O)OC(C)(C)C)NC(=O)C(Cc1c[nH]c2ccccc12)NC(=O)C(N)Cc1ccccc1)C(=O)NC(Cc1ccccc1)C(=O)N[C@@H]1CCC[C@@H]1C(=O)O (some centres undefined) (H-[ξF][ξW][ξK](Boc)[ξT](tBu)[ξF]-X29)	inactive
CC12CCC(CC1(Cl)Cl)C2 (centres undefined)	inactive
O=c1c2ccccc2nc(-c2ccccc2)n1NCC1(O)OCC(O)C(O)C1O (centres undefined)	inactive
CC1(C)CCC[C@]2(C)[C@H]3[C@H](C#N)c4cc(O)c(O)cc4O[C@@]3(C)CC[C@@H]12	inactive

* * *

- Test system: 786-0
- protocol notes: NCI tumour cell line growth inhibition, 48 h
Activity calls are given as the source filed them. Cut-off read from the data, not from the text of the source: active = GI50 up to about 1.1 µM and inactive = higher.
Outcomes: active, inactive

In [3]: df
Out[3]:
                                    molecule     label
 0  COC1=C2C[C@@H](C)C[C@@H](OC)[C@@H](O)[C@H](C)/C=C(\C)[C@@H](OC(N)=O)[C@H](OC)/C=C\C=C(/C)C(=O)NC(=CC1=O)C2=O    active
 1  C[C@H](NC1=CC(=O)C(N[C@@H](C)[C@H](O)c2ccccc2)=CC1=O)[C@H](O)c1ccccc1  inactive
 2  CCCCn1c2c(n(CCCC)c1=[Se])-c1c(n(CCCC)c(=[Se])n1CCCC)S[Se][Se]S2  inactive
 3  COc1ccc(OC)c2c1C[C@@H]1C(C#N)N3[C@H](Cc4c(OC)ccc(OC)c4[C@@H]3C)C(=O)N1[C@H]2C (stereo partly specified)  inactive
 4  COc1cc2nc(Sc3c([N+](=O)[O-])ncn3C)[nH]c2cc1OC  inactive
 5       O=C1Nc2cc([N+](=O)[O-])c(Br)cc2C1=O  inactive
 6  CCOC(=O)CN1C(=O)c2cccc3cc([N+](=O)[O-])cc(c23)C1=O  inactive
 7                              NCCCSCC(=O)O  inactive
 8               CN[C@@H](C)[C@H](N)c1ccccc1  inactive
 9  C1CCC(N=C2N(C3CCCCC3)C(=NC3CCCCC3)N2C2CCCCC2)CC1  inactive
10         c1ccc2c(c1)ccn2CCc1c[nH]c2ccccc12  inactive
11  CCS[C@H]1NC(=O)C1[C@H](C)O[Si](C)(C)C(C)(C)C (stereo partly specified)  inactive
12  CC12CCC(CC1(Cl)Cl)C2 (stereo unspecified)  inactive
13  COc1ccc(-c2c(C#N)c(-c3ccc(C)cc3)n(NS(=O)(=O)c3ccccc3)c(=O)c2C#N)cc1  inactive
14  CN(CCCNC(=O)c1cn(C)c2c1ccc1cc(Cl)ccc12)CCCNC(=O)c1cn(C)c2c1ccc1cc(Cl)ccc12  inactive
15  CC(C)(C)C(=O)C(C(=O)C(C)(C)C)C(=O)C(C)(C)C  inactive
16   CN1CCN(C(=S)N(C(=O)c2ccco2)c2ccccc2)CC1  inactive
17  O=C(O)C1C2c3ccccc3C(c3ccccc32)C1C(=O)NCC1CC1 (stereo unspecified)  inactive
18  O=C(O)c1nn(-c2ccc(Cl)cc2)c2c1C(=O)c1ccccc1C2=O  inactive
19     O=c1oc2cccnc2n1CCCCN1CCN(c2ccccc2)CC1  inactive
20  C/C(=C\COc1cc(O)c2c(c1)C(=O)c1cc(C)cc(O)c1C2=O)CCC1OC1(C)C (stereo unspecified)  inactive

* * *

- Tested on: A498
- protocol notes: NCI tumour cell line growth inhibition, 48 h
Active and inactive are the calls of the source. Cut-off read from the data, not from the text of the source: active = GI50 up to about 1.1 µM and inactive = higher.
Measured GI50 by item
recorded endpoint: GI50

                                   compound             measured
0  O=[N+]([O-])c1ccc(CSC2=C(c3ccc(Cl)cc3)S/C(=C3\SC(SCc4ccc([N+](=O)[O-])cc4)=C(c4ccc(Cl)cc4)S3)S2)cc1  > 100 µM (inactive)
1    CNC(=O)NCCN1N=C(C)/C(=C\c2ccccc2)CC1=O  > 100 µM (inactive)
2  CCOC(=O)CCC(NC(=O)c1ccc(CNc2nc3ccccc3nc2C(=O)OCC)cc1)C(=O)OCC (stereo not drawn)  > 100 µM (inactive)
3  Cn1c(=O)c2nc(CS(=O)(=O)Cc3nc4c(=O)n(C)c(=O)n(C)c4[nH]3)[nH]c2n(C)c1=O  > 100 µM (inactive)
4  COc1ccc(/C=N/N2C(=O)c3c(N)c(C#N)c(-c4ccccc4)c(-c4ccccc4)c3C2=O)cc1  > 100 µM (inactive)
5  C[C@H]1C[C@H]2[C@@H]3C(C)(C)O[C@]4(O)C(=O)[C@]5(O)[C@@H](C)CC[C@H]1[C@]25C(=O)[C@]34C     35 µM (inactive)
6              O=S1(=O)COc2ccccc2-c2ncncc21  > 100 µM (inactive)
7  COc1cc2nc(Sc3c([N+](=O)[O-])ncn3C)[nH]c2cc1OC     78 µM (inactive)
